The origin of these recorded values is PubChem BioAssay.

Test system: Chordin-like protein 2 (CHRDL2)
Test: compounds binding chordin-like 2 – biochemical, small-molecule microarray, 635 nm fluorescence, primary screen (AID 1126);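 further: printed compound slides probed with Chrdl2 protein at 4 µg/mL for 1 h at 4 C; score merges 667 nm emission intensity with signal to noise over three replicate slides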
Settings: fluorescence 635 nm, higher = more signal
observed property: composite z-score

In [3]: df
Out[3]:
                                   compound     val
0  Cc1ccc(S[C@]2(C(=O)NCC(F)(F)F)CC(=O)N(Cc3cc(C(F)(F)F)cc(C(F)(F)F)c3)[C@@H]2c2ccc(CO)cc2I)cc1   -1.54
1  [N-]=[N+]=NCc1ccccc1C[C@@]1(C(N)=O)N=C(c2ccc(OCCCO)cc2)O[C@@H]1c1ccccc1   -1.38
2  [N-]=[N+]=Nc1ccccc1C[C@]1(C(=O)O)COC(c2ccc(OCCCO)cc2)=N1   -1.31
3  CCOC(=O)C[C@H]1[C@H](OC(=O)c2ccc(C(=O)c3ccccc3)cc2)[C@@H](NC(=O)CC(C)C)c2cc(OCCCO)ccc2N1C(=O)c1ccccc1   0.262
4  O=C1C2C=CC(C(O)c3ccco3)N(Nc3ccccc3F)C2C(=O)N1c1ccccc1 (stereo not drawn)  -0.238
5  [N-]=[N+]=Nc1ccccc1[C@H]1OC(c2ccc(OCCCO)cc2)=N[C@@]1(Cc1ccccc1)C(=O)NCCN1CCOCC1  0.0045
6  CCCNC(=O)[C@@H]1c2ccccc2C(=O)N(Cc2ccc(OC(F)(F)F)cc2)[C@H]1c1ccc(CO)cc1   0.102
7  C=CC[C@@H](OC(=O)Nc1ccc(OC)cc1)c1ccc(O)c(F)c1  -0.861

* * *

Assay: basal CRE-LacZ reporter activity in PC12 – cell-based, unstimulated, primary screen (AID 1145)
Details: no forskolin, luminescence, 4.5 h, higher = more signal, called active from +8 up or from −8 down
z-score of 0.8 or higher: met. Under 0.8: not met.

compound	assigned class
CC(C)N1C(=O)C[C@@](C(=O)NC2CC2)(c2ccc([N+](=O)[O-])cc2)[C@H]1c1ccc(CO)cc1	met
COC(=O)C1=CC(CCCO)=CC(c2cccs2)N(Cc2cccc(OC(F)(F)F)c2)C=C1C(=O)OC (configuration not stated)	not met
C=CC[C@H](OC(=O)Nc1ccc(SC)cc1)c1ccc(O)c2ccccc12	met
COc1ccc(C#Cc2ccc3c(c2)[C@]2(C(=O)N3)[C@H](c3ccc(O)cc3)N3[C@H](c4ccccc4)[C@H](c4ccccc4)OC(=O)[C@H]3[C@@H]2C(=O)Nc2nc3ccccc3s2)cc1	not met
COc1ccc(CCNC(=O)[C@@]2(Sc3ccc(C)cc3)CC(=O)N(Cc3ccccc3C(F)(F)F)[C@@H]2c2ccc(CO)cc2I)cc1	not met
C=C(/C(=C/C[C@H](OC(=O)c1ccncc1)c1ccc(CO)o1)c1cnc2ccccc2c1)C(C)C	met

* * *

Test: blockers of DNA damage checkpoint Chk1 activation – imaging, HeLa, hydroxyurea, phospho-Chk1 antibody, percent positive cells, primary screen (AID 1186)
Details: hydroxyurea-induced phospho-Chk1 immunofluorescence imaging, higher = more signal
Measured z-score, listed per entry.

molecule	z-score
C[C@@H]1NC(=O)[C@@H](Cc2ccccc2)NC(=O)[C@@]23C(=O)N[C@@H](Cc4ccccc4)C2[C@H](C)[C@@]2(C)O[C@H]2C3/C=C/C/C=C\CNC1=O (some centres undefined)	-0.115
COc1ccc([Si](C)(C)[C@@H]2[C@@H](CCO)O[C@]3(C(=O)N(Cc4cccc(NC(=O)[C@H](C)O)c4)c4ccccc43)[C@H]2C)cc1	0.214
CCOC(=O)C[C@H]1[C@H](OC(=O)Cc2ccc3c(c2)OCO3)[C@@H](NC(=O)c2ccc3ccccc3n2)c2cc(OCCCO)ccc2N1C(=O)c1ccc2ccccc2n1	-0.663
Oc1ccc2cc[n+](Cc3cc4c(cc3Br)OCO4)cc2c1	0.12

* * *

Target: Left-right determination factor 2 (Homo sapiens) (UniProt O00292)
Sequence (O00292 whole entry, looked up): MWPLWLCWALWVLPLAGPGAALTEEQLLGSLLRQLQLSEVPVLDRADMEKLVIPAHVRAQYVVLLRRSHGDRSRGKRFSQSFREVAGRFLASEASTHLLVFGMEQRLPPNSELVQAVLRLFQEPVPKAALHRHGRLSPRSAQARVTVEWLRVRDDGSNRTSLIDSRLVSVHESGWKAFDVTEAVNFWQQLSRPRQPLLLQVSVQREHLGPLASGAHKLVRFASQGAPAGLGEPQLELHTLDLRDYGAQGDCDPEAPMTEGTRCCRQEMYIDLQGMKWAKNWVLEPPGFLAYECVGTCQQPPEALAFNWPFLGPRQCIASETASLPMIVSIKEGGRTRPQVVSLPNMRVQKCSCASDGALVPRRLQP
Test: small molecules binding LEFTY2 protein – biochemical, small-molecule microarray, 635 nm fluorescence scan, primary screen (AID 1110)
Conditions: higher = more signal
observed property: composite z-score

>>> print(df.to_string())
                                  structure      val
0  COCCCNC(=O)[C@@H]1c2ccccc2C(=O)N(C(C)C)[C@H]1c1ccc(CO)cc1   0.0506
1  [N-]=[N+]=Nc1ccccc1[C@H]1OC(c2ccc(OCCCO)cc2)=N[C@@]1(Cc1ccccc1)C(=O)NCCN1CCOCC1    0.331
2  CN(C)C(=O)[C@]1(Cc2ccccc2CN=[N+]=[N-])N=C(c2ccc(OCCCO)cc2)O[C@@H]1c1ccccc1  -0.0728
3  COc1ccc([Si](C)(C)[C@@H]2[C@@H](CCO)O[C@]3(C(=O)N(Cc4cccc(NC(=O)[C@H](C)O)c4)c4ccccc43)[C@H]2C)cc1   0.0544

* * *

Assay: probe aShh binding to arrayed compounds – biochemical, biotinylated probe, 635/667 nm fluorescence, primary screen (AID 1114);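 further: probe is biotin-labelled aShh protein from a stem cell growth factor screen; measures binding of labelled protein to compounds printed on the slide; score merges feature fluorescence at 667 nm with signal-to-noise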
Conditions: small-molecule microarray, higher = more signal
composite z-score of -0.2 or higher: met. Under -0.2: not met.

compound	assigned class
COCCCNC(=O)[C@@H]1c2ccccc2C(=O)N(C(C)C)[C@H]1c1ccc(CO)cc1	not met
O=C1O[C@H](c2ccccc2)[C@H](c2ccccc2)N2[C@H]1[C@@H](C(=O)O)[C@]1(C(=O)Nc3ccc(C#CCCO)cc31)[C@H]2c1ccccc1OCCO	met
Cc1ccc(N2C(=O)c3ccccc3[C@@H](C(=O)NCCCN(C)C)[C@@H]2c2ccc(CO)cc2)nc1	not met
COc1ccc(C(=O)Nc2ccc(CN3C(=O)[C@]4(O[C@H](CC(=O)N5Cc6ccccc6C[C@H]5CO)[C@@H]([Si](C)(C)c5ccc(OC)cc5)[C@@H]4C)c4ccccc43)cc2)cc1	not met
CCOC(=O)C[C@H]1[C@H](OC(=O)c2cc3ccccc3oc2=O)[C@@H](NC(=O)c2ccc3ccccc3n2)c2cc(OCCCO)ccc2N1C(=O)Cc1ccc(OC)cc1	met
COCCOC(=O)N1C(=O)[C@@]2(c3cc(C#CC4(O)CCCCCC4)ccc31)[C@H](C(=O)Nc1nc3ccccc3s1)[C@H]1C(=O)O[C@H](c3ccccc3)[C@H](c3ccccc3)N1[C@@H]2c1ccc(O)cc1	met
O[C@@H](Cc1ccccc1)[C@@H](/C=C/C1CC1)N(CC#Cc1ccccc1)Cc1ccccc1Br	met
CCOC(=O)C[C@H]1[C@H](OC(=O)c2ccc(C(=O)c3ccccc3)cc2)[C@@H](NC(=O)CC(C)C)c2cc(OCCCO)ccc2N1C(=O)c1ccccc1	met
C#CCN([C@@H](Cc1ccccc1)C(=O)OC)[C@@H](/C=C/C1CC1)[C@H](O)Cc1ccccc1	met
CC(C)C(O)C1C=CC2C(=O)N(c3ccccc3)C(=O)C2N1Nc1ccccc1 (stereo not given)	met
O=C1C2C=CC(C(O)C3CC=CCC3)N(Nc3ccccc3)C2C(=O)N1c1ccccc1 (stereo not given)	met
CCOC(=O)C1=CC[C@@H](c2ccccc2F)N(S(=O)(=O)c2ccc(C)cc2)[C@H]1c1ccccc1	met
[N-]=[N+]=Nc1ccccc1C[C@]1(C(=O)O)COC(c2ccc(OCCCO)cc2)=N1	met
O=C1OCCC/C=C\[C@H]2OC34C=CCN(c5ccc6ccccc6c5)C(=O)[C@H]3N(CCO)C(=O)[C@@H]4C12 (stereo not given in full)	met
CCCC[C@@H](O)C1=C(COC)C[C@H]2C(=O)N(C)C(=O)[C@H]2[C@H]1CO	met

* * *

Molecular target: Neurogenic locus notch homolog protein 2 (Homo sapiens) (UniProt Q04721)
Sequence (Q04721 whole entry, looked up): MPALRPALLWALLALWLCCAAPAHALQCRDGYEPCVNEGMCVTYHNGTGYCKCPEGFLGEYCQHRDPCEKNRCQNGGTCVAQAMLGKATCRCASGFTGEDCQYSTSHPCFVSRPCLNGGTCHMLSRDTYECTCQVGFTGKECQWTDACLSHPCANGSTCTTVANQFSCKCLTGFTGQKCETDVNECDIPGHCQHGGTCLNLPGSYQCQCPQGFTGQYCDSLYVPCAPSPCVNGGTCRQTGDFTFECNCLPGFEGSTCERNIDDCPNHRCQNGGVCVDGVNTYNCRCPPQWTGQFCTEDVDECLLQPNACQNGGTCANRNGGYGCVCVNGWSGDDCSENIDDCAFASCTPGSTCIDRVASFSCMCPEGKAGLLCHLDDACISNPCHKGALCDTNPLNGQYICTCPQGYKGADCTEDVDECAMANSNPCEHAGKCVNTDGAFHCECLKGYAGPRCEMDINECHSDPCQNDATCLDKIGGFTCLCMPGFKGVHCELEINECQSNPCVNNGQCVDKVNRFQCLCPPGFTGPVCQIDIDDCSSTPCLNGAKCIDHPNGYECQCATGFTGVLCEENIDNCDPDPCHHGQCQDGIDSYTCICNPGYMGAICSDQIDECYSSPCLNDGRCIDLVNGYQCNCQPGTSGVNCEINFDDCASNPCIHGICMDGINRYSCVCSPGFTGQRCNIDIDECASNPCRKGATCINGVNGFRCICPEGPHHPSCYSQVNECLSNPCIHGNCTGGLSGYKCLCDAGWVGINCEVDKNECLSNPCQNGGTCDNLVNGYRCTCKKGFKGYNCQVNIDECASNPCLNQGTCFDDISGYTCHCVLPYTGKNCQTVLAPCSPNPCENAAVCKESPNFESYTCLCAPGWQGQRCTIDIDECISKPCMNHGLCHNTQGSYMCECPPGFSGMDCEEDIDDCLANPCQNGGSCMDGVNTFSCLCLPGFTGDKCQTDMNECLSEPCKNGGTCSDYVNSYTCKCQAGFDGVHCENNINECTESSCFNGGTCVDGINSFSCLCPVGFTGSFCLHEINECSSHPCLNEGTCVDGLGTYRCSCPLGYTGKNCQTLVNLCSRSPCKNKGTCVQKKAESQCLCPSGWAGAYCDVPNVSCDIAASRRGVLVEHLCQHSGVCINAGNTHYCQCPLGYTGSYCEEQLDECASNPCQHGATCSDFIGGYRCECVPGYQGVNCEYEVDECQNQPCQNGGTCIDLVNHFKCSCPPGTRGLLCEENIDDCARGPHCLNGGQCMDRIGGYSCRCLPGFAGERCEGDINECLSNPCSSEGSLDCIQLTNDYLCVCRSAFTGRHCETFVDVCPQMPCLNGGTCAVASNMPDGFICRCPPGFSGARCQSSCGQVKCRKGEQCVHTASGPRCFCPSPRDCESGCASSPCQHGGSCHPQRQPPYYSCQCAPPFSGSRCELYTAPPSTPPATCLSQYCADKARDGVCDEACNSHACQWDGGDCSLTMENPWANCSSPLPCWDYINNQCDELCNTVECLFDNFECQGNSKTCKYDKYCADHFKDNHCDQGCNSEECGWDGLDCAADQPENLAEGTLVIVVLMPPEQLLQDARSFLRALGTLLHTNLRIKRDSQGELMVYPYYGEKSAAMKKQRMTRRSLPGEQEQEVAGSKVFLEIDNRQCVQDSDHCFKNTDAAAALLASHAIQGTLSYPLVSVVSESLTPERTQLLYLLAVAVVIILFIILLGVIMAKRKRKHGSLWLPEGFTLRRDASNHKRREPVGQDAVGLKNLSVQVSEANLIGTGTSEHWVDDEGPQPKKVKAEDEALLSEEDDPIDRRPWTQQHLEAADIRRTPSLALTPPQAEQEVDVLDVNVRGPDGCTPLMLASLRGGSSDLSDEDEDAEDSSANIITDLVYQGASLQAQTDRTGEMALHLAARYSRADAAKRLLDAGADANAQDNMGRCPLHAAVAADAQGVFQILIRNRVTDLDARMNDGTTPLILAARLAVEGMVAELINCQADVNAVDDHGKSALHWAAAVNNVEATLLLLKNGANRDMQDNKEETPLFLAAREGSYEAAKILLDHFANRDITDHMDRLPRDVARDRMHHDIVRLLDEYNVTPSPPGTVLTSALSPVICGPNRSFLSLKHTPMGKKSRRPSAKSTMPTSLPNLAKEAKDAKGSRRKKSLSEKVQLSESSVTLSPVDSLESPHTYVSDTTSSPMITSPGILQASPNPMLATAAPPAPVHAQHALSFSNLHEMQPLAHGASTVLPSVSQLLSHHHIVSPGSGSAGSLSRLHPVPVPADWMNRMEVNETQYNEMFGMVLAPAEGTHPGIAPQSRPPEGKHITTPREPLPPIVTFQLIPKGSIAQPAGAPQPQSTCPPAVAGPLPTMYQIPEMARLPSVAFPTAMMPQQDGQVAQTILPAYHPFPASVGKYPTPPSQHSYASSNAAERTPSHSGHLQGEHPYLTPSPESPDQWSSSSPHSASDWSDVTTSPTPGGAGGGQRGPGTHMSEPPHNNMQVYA
Test: small molecules binding Notch2 protein – biochemical, small-molecule microarray, 635 nm fluorescence, stem cell growth factors, primary screen (AID 1073)
Conditions: higher = more signal
Measured composite z-score, listed per entry.

compound	composite z-score
C=CCC(OC(C)=O)[C@@H]1[C@@H](N(Cc2cccc3ccccc23)C(=O)Cc2ccc(F)cc2)c2cc(OCCCO)ccc2N1C(=O)c1ccc2ccccc2c1 (some centres not stated)	-0.108
COc1cc2c(cc1O)C=[N+](Cc1sc3ccccc3c1Cl)CC2	1.06
COc1ccc(CCNC(=O)[C@@]2(c3ccc([N+](=O)[O-])cc3)CC(=O)N(C3CCCCC3)[C@@H]2c2ccc(CO)cc2)cc1	0.58
COc1cccc(C)c1NC(=O)O[C@H]1[C@H](OC(=O)Nc2ccc3c(c2)OCO3)[C@@H](OC(=O)Nc2ccc3c(c2)OCO3)[C@@H](OC)O[C@@H]1CO	1.65
NC(=O)NCC#Cc1ccc2c(c1)[C@]1(C(=O)N2)[C@H](C(=O)N2CCN(c3ncccn3)CC2)[C@H]2C(=O)O[C@H](c3ccccc3)[C@H](c3ccccc3)N2[C@@H]1c1ccc(O)cc1	1.17
CC(C)(C)OC(=O)COc1cccc(C(=O)CCN2CCOCC2)c1	-0.742
CC(=O)NCCCC[C@@H]1NC(=O)[C@@H]2C[C@H](C(=O)NCCCCCN)[C@H](c3cccc(OCCO)c3)N2C1=O	0.542
